For each entry below, report its concentration at 24 h value.
- experiment: Drug concentration in C57BL/6 mouse at 50 mg/kg, sc administered as single dose measured after 24 hrs by HPLC-MS/MS analysis
- Assay type: ADME, organism-based
- test.context: in vivo, read-out: Drug uptake
One number for each entry, in nM.

Would you please look over these solved cases?
# chemical.string, concentration at 24 h / nM
data = [
    ("Cc1cc(OS(N)(=O)=O)c(Cl)cc1N(C)C(=O)c1ccc(-c2cc(C)c(O)c(C)c2)o1", 62),
    ("Cc1cc(OS(N)(=O)=O)ccc1N(C)C(=O)c1ccc(-c2cc(C)c(O)c(C)c2)o1", 797),
]

With those in mind, consider the next molecule.
Could you share which concentration at 24 h value was measured for Cc1ccc(OS(N)(=O)=O)cc1N(C)C(=O)c1ccc(-c2cc(C)c(O)c(C)c2)o1 ?
49

---

- experiment: AUC(0 to 24 hrs) in C57BL/6 mouse at 50 mg/kg, sc administered as single dose measured after 24 hrs by HPLC-MS/MS analysis
- Format: ADME, organism-based
- Parameters: time 24 hrs, dose 50 mg/kg, route sc
- test.context: in vivo
For each entry below, report its AUC(0-t) at 24 h value.
One number for each entry, in ng·h/mL.

Would you please look over these solved cases?
# chemical.string, quantity.unit, AUC(0-t) at 24 h
rows = [
    ("Cc1cc(OS(N)(=O)=O)ccc1N(C)C(=O)c1ccc(-c2cc(C)c(O)c(C)c2)o1", "ng·h/mL", 11600),
    ("Cc1cc(OS(N)(=O)=O)c(Cl)cc1N(C)C(=O)c1ccc(-c2cc(C)c(O)c(C)c2)o1", "ng·h/mL", 1900),
]

With those in mind, consider the next compound.
Could you share which AUC(0-t) at 24 h value was measured for Cc1ccc(OS(N)(=O)=O)cc1N(C)C(=O)c1ccc(-c2cc(C)c(O)c(C)c2)o1 ?
1900

---

- experiment: Half life in C57BL/6 mouse at 50 mg/kg, sc administered as single dose measured after 24 hrs by HPLC-MS/MS analysis
- Type: ADME, organism-based
- test.context: in vivo
readout.label: half-life (h)
Numbers only, in h.

Would you please look over these solved cases?
# chemical.string, half-life, h
rows = [
    ("Cc1ccc(OS(N)(=O)=O)cc1N(C)C(=O)c1ccc(-c2cc(C)c(O)c(C)c2)o1", 2.15),
    ("Cc1cc(OS(N)(=O)=O)c(Cl)cc1N(C)C(=O)c1ccc(-c2cc(C)c(O)c(C)c2)o1", 2.81),
]

With those in mind, consider the next compound.
Could you share which half-life value was measured for Cc1cc(OS(N)(=O)=O)ccc1N(C)C(=O)c1ccc(-c2cc(C)c(O)c(C)c2)o1 ?
3.82

---

- measured.on: UniProt P08842
- Sequence (P08842 whole entry): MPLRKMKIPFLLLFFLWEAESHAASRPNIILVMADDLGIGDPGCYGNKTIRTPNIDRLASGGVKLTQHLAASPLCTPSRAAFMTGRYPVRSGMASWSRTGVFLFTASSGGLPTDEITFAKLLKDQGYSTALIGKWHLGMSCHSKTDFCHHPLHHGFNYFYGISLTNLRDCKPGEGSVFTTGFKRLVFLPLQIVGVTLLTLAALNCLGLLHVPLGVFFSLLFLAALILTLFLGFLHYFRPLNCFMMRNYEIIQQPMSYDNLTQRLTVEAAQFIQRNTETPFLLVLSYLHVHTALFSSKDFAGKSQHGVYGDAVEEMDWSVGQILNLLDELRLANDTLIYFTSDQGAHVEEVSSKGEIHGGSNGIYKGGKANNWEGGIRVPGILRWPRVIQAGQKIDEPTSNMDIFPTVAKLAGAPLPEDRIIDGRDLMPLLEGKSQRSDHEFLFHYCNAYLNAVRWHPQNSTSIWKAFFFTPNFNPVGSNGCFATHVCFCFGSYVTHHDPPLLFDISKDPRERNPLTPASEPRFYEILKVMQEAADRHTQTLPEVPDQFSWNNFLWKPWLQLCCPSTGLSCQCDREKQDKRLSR
- experiment: Inhibition of human STS expressed in human T47D cells using [3H]E1S as substrate incubated for 1 hr followed by substrate addition measured after 24 hrs in presence of E1S by HPLC analysis
- Type: cell-based
readout.label: pIC50
Answers are plain numbers, as −log10 of the molar value.

# chemical.string, readout.number
data = [
    ("Cc1cc(-c2ccc(C(=O)N(C)c3ccc(OS(N)(=O)=O)c(F)c3)o2)cc(C)c1O", 7.08),
    ("Cc1cc(OS(N)(=O)=O)c(Cl)cc1N(C)C(=O)c1ccc(-c2cc(C)c(O)c(C)c2)o1", 7.12),
    ("Cc1ccc(OS(N)(=O)=O)cc1N(C)C(=O)c1ccc(-c2cc(C)c(O)c(C)c2)o1", 6.35),
    ("NS(=O)(=O)Oc1ccc(-c2ccc(C(=O)c3c(F)ccc(O)c3F)s2)cc1Cl", 7.82),
    ("Cc1cc(-c2ccc(C(=O)N(C)c3cccc(OS(N)(=O)=O)c3)o2)cc(C)c1O", 7.04),
    ("Cc1cc(-c2ccc(C(=O)N(C)c3ccc(OS(N)(=O)=O)c(Cl)c3)o2)cc(C)c1O", 7.42),
]

Return reported pIC50 values for all items listed beneath this line.
1. Cc1cc(OS(N)(=O)=O)ccc1N(C)C(=O)c1ccc(-c2cc(C)c(O)c(C)c2)o1
2. Cc1cc(-c2ccc(C(=O)N(C)c3ccc(OS(N)(=O)=O)cc3)o2)cc(C)c1O

1: 6.40; 2: 6.82

---

- experiment: Observed Cmax in C57BL/6 mouse at 50 mg/kg, sc administered as single dose measured upto 24 hrs by HPLC-MS/MS analysis
- Assay type: ADME, organism-based
- Set-up: time < 24 hrs, dose 50 mg/kg, route sc
- test.context: in vivo
readout.label: Cmax (nM)
One number for each entry, in nM.

Would you please look over these solved cases?
# chemical.string, quantity.unit, Cmax
data = [
    ("Cc1cc(OS(N)(=O)=O)c(Cl)cc1N(C)C(=O)c1ccc(-c2cc(C)c(O)c(C)c2)o1", "nM", 400),
    ("Cc1ccc(OS(N)(=O)=O)cc1N(C)C(=O)c1ccc(-c2cc(C)c(O)c(C)c2)o1", "nM", 517),
]

With those in mind, consider the next compound.
Could you share which Cmax value was measured for Cc1cc(OS(N)(=O)=O)ccc1N(C)C(=O)c1ccc(-c2cc(C)c(O)c(C)c2)o1 ?
2820

---

- experiment: Lipophilicity, logD of compound at pH 7.4
- Assay type: physicochemical
- test.context: buffer
For each entry below, report its logD value.

Would you please look over these solved cases?
# chemical.string, logD
measured = [
    ("Cc1ccc(OS(N)(=O)=O)cc1N(C)C(=O)c1ccc(-c2cc(C)c(O)c(C)c2)o1", 2.68),
    ("Cc1cc(OS(N)(=O)=O)c(Cl)cc1N(C)C(=O)c1ccc(-c2cc(C)c(O)c(C)c2)o1", 2.75),
]

With those in mind, consider the next molecule.
Could you share which logD value was measured for Cc1cc(OS(N)(=O)=O)ccc1N(C)C(=O)c1ccc(-c2cc(C)c(O)c(C)c2)o1 ?
2.2

---

- experiment: Metabolic stability in human liver S9 fraction assessed as intrinsic clearance measured upto 60 mins in presence of NADPH by LC-MS/MS analysis
- Type: ADME, subcellular
- test.context: read-out: CLH
Values of microsomal CLint strictly less than 40 µL/min/mg map to 1 (yes), and values of at least 40 µL/min/mg map to 0 (no).

# compound, assigned.class
rows = [
    ("Cc1cc(OS(N)(=O)=O)ccc1N(C)C(=O)c1ccc(-c2cc(C)c(O)c(C)c2)o1", "1 (yes)"),
    ("Cc1cc(OS(N)(=O)=O)c(Cl)cc1N(C)C(=O)c1ccc(-c2cc(C)c(O)c(C)c2)o1", "1 (yes)"),
    ("O=c1ccc2ccc(O)cc2o1 [UMBELLIFERONE]", "0 (no)"),
    ("Cc1ccccc1N(C)C(=O)c1ccc(-c2cc(C)c(O)c(C)c2)o1", "1 (yes)"),
    ("Cc1ccc(OS(N)(=O)=O)cc1N(C)C(=O)c1ccc(-c2cc(C)c(O)c(C)c2)o1", "1 (yes)"),
]

# input for lookup
microsomal CLint strictly < 40 µL/min/mg for this compound? C[C@]12CC[C@H]3[C@@H](CCC4=CC(=O)CC[C@@]43C)[C@@H]1CC[C@@H]2O [TESTOSTERONE]
0 (no)
